Known folding enthalpy of a selection of sequences
# assayOverview: folding enthalpy; higher = less favourable; fluorescence melt of hairpins on a sequencing array, two-state fit
# testSettings: sodium 0.088 M
Give the quantity in kcal/mol, number only.

Here are 5 sequences together with their reported answers.
GATCTGTTTTCAGATC ((((((....))))))    -49.9
GGCATGCGAAAGCACGCC (((.(((....))).)))    -27.3
GGGAGAGGAAACTCCCCC (((.(((....))).)))    -17.8
GACATGGGAAACCACGTC (((.(((....))).)))    -26.7
GATCACTGCAGTGATC ((((((....))))))    -44.7

Then this sequence:
Memo: CGCGGAGCGGTCCGCG ((((((....)))))) , reported folding enthalpy: -15.8

* * *

# assayOverview: melting temperature; fluorescence melt of hairpins on a sequencing array, two-state fit, raised by 9.35 °C to match UV melts
# testSettings: sodium 0.088 M
measurementName: Tm (°C)
Give the quantity in °C, number only.

Here are 3 sequences together with their reported answers.
GCCGCCGAAAGGCCAGGC ((((((....)))..)))    56.1
GCTCTACGAAAGTAAGC (((.(((....))))))    38.7
GGGAACGAAAGTTCGCCC ((((((....)))..)))    46.4

Then this sequence:
Memo: GCCTGGTCGAAAGACGGC (((..(((....)))))) , reported Tm: 52.2

* * *

Known Tm of a selection of sequences
# assayOverview: melting temperature; fluorescence melt of hairpins on a sequencing array, two-state fit, raised by 9.35 °C to match UV melts
# testSettings: sodium 0.088 M
Give the quantity in °C, number only.

Here are 5 sequences together with their reported answers.
GAAACCGAAAGGTTTTC ((((((....))).)))    50.6
GTAACAGAAATGTTAC ((((((....))))))    45.7
GATCGAAAATTCGATC ((((((....))))))    50
GATCAAAAATTGATC ((((((...))))))    37
GATCTCAGGGAGATC ((((((...))))))    54.5

Memo: GTTGAGGCGAAAGCCAAC (((..(((....)))))) , reported Tm: 40.7

Memo: GATCTCGGTCGAGATC ((((((....)))))) , reported Tm: 56.2

Memo: CGTGAGAAATCACG (((((....))))) , reported Tm: 50.8

Memo: GATCATACCGATGATC ((((((....)))))) , reported Tm: 46.9

Memo: GCAAAGCGAAAGCGGTGC (((..((....))..))) , reported Tm: 61.7

Memo: GCTTCGACGAAAGTCAGC (((..(((....)))))) , reported Tm: 33.5

Memo: GATCCTTAGGAGGATC ((((((....)))))) , reported Tm: 51

* * *

Known folding enthalpy of a selection of sequences
# assayOverview: folding enthalpy; higher = less favourable; fluorescence melt of hairpins on a sequencing array, two-state fit
# testSettings: sodium 0.088 M
Give the quantity in kcal/mol, number only.

Here are 5 sequences together with their reported answers.
GATCTGCCCCAGATC ((((((...))))))    -33.6
GATCCTGCCGAGGATC ((((((....))))))    -32.1
GGAGATGGAAACATCTCC (((((((....)))))))    -38
GATTTCCGAAAGGACATC (((.(((....))).)))    -27.1
GTTAGTCGAAAGACCAAC (((.(((....))).)))    -19.1

Memo: CTTACGAAAGTAAG (((((....))))) , reported folding enthalpy: -19.3

Memo: GCTCATCGAAAGATCAGC (((.(((....))).))) , reported folding enthalpy: -29.6

Memo: GTTCCCGAAAGGGTAAAC ((((((....)))..))) , reported folding enthalpy: -11.5

Memo: GGTCCACGAAAGTGCACC (((.(((....))).))) , reported folding enthalpy: -25.9

Each recorded value in this set is attributed to the array DNA melting data of Ke et al. (doi:10.1101/2024.01.08.574731).
